Biological target: X-box-binding protein 1 (Homo sapiens) (UniProt P17861)
Assay: XBP1 reporter suppression in cells – counter-screen, dose response (AID 504313);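 note: CHO cells carrying an XBP1 reporter stimulated with tunicamycin; potency is for inhibition of the tunicamycin-induced reporter signal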
Details: XBP1 reporter cell assay, percent of control
Active and inactive are the calls of the source. The rule behind the calls is not given here.
Hello, when you answer, please use one of the following outcomes: class 1 = active, class 0 = inactive

// below: answered molecules
What did the test return for CCc1ccc(-c2cc(C(=O)N3N=C(C(F)F)CC3(O)C(F)F)c3ccccc3n2)cc1 (stereo unspecified) ? class 0

Give the logged outcome of this assay for the following molecule: CCCCCCCCCCCCCCCCn1cc[n+](C)c1 class 0

Next:
Which outcome did this test record for the molecule CCCCc1nc2ccccc2c(=O)n1NC(=O)c1c(O)c2ccccc2n(C)c1=O ? class 0

How was CCCCCCCCCCCCCCCC[n+]1cccc2ccccc21 classified in this test? class 0

Outcome? O=C(Cn1c(C(F)(F)F)nc2ccccc21)N=Nc1c(O)[nH]c2ccc(Br)cc12 class 0

Called result for CCCCc1ccc(Nc2nc(CCC)cc(=O)[nH]2)cc1 class 1

* * *

Biological target: X-box-binding protein 1 (Homo sapiens) (UniProt P17861)
Assay: XBP1 reporter suppression in cells – counter-screen, dose response (AID 504313);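 note: CHO cells carrying an XBP1 reporter stimulated with tunicamycin; potency is for inhibition of the tunicamycin-induced reporter signal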
Conditions: XBP1 reporter cell assay, percent of control
Calls of active or inactive are those of the source. The rule behind the calls is not given here.
Your response should consist of one outcome taken from y = active, n = inactive

Answer briefly: the call reported for C=CCn1c(SCC(=O)Nc2ccc(-c3nc4ccc(C)cc4s3)cc2)nnc1-c1ccccc1 in this assay. n

* * *

# IC50 annotations
Biological target: X-box-binding protein 1 (Homo sapiens) (UniProt P17861)
Assay: XBP1 reporter suppression in cells – counter-screen, dose response (AID 504313);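 note: CHO cells carrying an XBP1 reporter stimulated with tunicamycin; potency is for inhibition of the tunicamycin-induced reporter signal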
Details: XBP1 reporter cell assay, percent of control
Active and inactive are the calls of the source. How the calls were made is not given here.

Field IC50 (system: X-box-binding protein 1 (Homo sapiens) (UniProt P17861)) for entry Cc1nn(C(C)(C)C)c(C)c1/C=N/OC(=O)Nc1ccc(Cl)cc1 = < 0.16 µM

Per the reported X-box-binding protein 1 (Homo sapiens) (UniProt P17861) data, CC[C@@H](C)[C@H](NC(=O)OC(C)(C)C)c1nnc(S(=O)(=O)Cc2cc(C)ccc2C)o1 has IC50 of 3.76 µM

IC50 for X-box-binding protein 1 (Homo sapiens) (UniProt P17861) with input O=C(CN1c2ccccc2Sc2ccccc21)NNC(=O)Nc1cccc(Cl)c1 equals > 10 µM (inactive)

New cases:
Tested system X-box-binding protein 1 (Homo sapiens) (UniProt P17861); IC50 recorded for Cc1cc2c(cc1C)CSC(c1c(O)ccc3ccccc13)SC2 was > 10 µM (inactive)

* * *

Target: X-box-binding protein 1 (Homo sapiens) (UniProt P17861)
Experiment: XBP1 reporter suppression in cells – counter-screen, dose response (AID 504313);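 note: CHO cells carrying an XBP1 reporter stimulated with tunicamycin; potency is for inhibition of the tunicamycin-induced reporter signal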
Conditions: XBP1 reporter cell assay, percent of control
Activity calls are given as the source filed them. No rule for the calls is given here.
Response enum: active, inactive

Short answer needed: outcome of this test for CC(C)=C1C2CCC1C(C(=O)Nc1sc(C)c(-c3ccc(C(C)C)cc3)c1C(N)=O)C2C(=O)O (configuration not stated) ? inactive

Which outcome did this test record for the molecule CCCc1cc(C(=O)Cc2ccc(F)cc2)c(O)cc1O ? inactive

// param item: CC(C)(C)c1nnc(N/N=C/c2cc(Br)ccc2O)n(N)c1=O ; yields the recorded call active

Look up the recorded call for Cc1ccccc1/C=N/Nc1ccnc2cc(Cl)ccc12 in this test. inactive

In this assay, the call recorded for C=CCc1cccc(/C=N/NC(=O)CCCNc2ccc(C)cc2)c1O was what? inactive

Name the outcome recorded for CN1C(=O)/C(=C/c2cc(N=Nc3ccccc3)ccc2O)SC1=S in the assay. inactive

Answer briefly: the call reported for CC1(c2ccccc2)CC(C)(C)N2C(=O)C3(C(C#N)=C(N)Oc4cc(O)ccc43)c3cccc1c32 (configuration not stated) in this assay. inactive

Per the records of this test, what outcome belongs to O=C(/C=C/c1cccc([N+](=O)[O-])c1)n1cnc2ccccc21 ? inactive

Record lookup: outcome of this test for Cc1cc(C2=NNC(=NC3CC3)SC2)c(C)n1-c1ccccc1F ? inactive

Called result for Cc1ccc(-c2cc3c(nn2)-c2ccccc2C3=O)cc1 inactive

Further cases:
// outcome(item) with item = Nc1nc(-c2ccccc2)c(N=Nc2ccccc2Cl)s1 inactive

GET /call?item= CC(C)(C)c1ccc(S(=O)(=O)NCC(=O)Nc2sc3c(c2C(N)=O)CCCC3)cc1 returns the recorded outcome of this test. inactive

Lab log entry: CC(C)Cn1c(N)c(C(=O)COC(=O)C2CCCCC2)c(=O)n(C)c1=O — outcome as called in the assay? inactive

Lab log entry: CC1CCC(C(C)C)C(OCC(O)CN2CCN(Cc3ccccc3)CC2)C1 (configuration not stated) — outcome as called in the assay? inactive

Dear all, I need the recorded test outcome for Cc1cc(C2=NNC(=NC3CC3)SC2)c(C)n1-c1ccccc1 , thank you. inactive

Entry O=C(Nc1nccs1)c1cc2c(s1)CCCCC2 : call = ? inactive

Recorded call for Cc1cc(C)c(S(=O)(=O)c2ccccc2)c(OC(=O)c2cc(F)c(F)cc2Cl)n1 ? inactive

Field: outcome | Entry: N#CC(C#N)=C1C=CC=CN1/C(=C\c1ccccc1Cl)C(=O)c1ccccc1 inactive

Which result was noted for this molecule in the test: O=c1oc2ccccc2c(Cl)c1CN1CCCCC1 inactive

Outcome logged for COc1ccccc1-c1cc(C(F)(F)F)nc(S(=O)(=O)CCCC(=O)NC(C)C)n1 in this assay: inactive

Per the records of this test, what outcome belongs to CCN=C1NN=C(c2cc(C)n(Cc3ccco3)c2C)CS1 ? active

Tell me the assay call for O=C(Nc1ccc(C(F)(F)F)cc1)c1cc(-c2cccnc2)nc2ccc(Br)cc12 please. inactive

What is the recorded call for this molecule in the test? O=c1c(Cl)nc2cc(Cl)ccc2n1CCNc1ncc(C(F)(F)F)cc1Cl active

Tell me the assay call for CC(=O)OCC1O[C@@H](O[C@@H]2C[C@H]3C(C)(C)[C@H](OC(C)=O)CC[C@]3(C)[C@H]3CC[C@]45C[C@]4(CC[C@H]5[C@@H](C)C[C@@H](O)[C@H](O)C(C)(C)O)[C@@]32C)[C@H](O)[C@@H](O)[C@@H]1O (some centres not stated) please. inactive

Record lookup: outcome of this test for CC(C)=NOc1cc(NC(=O)CCl)cc([N+](=O)[O-])c1 ? inactive

Per the assay record, what outcome was assigned to CC1=NN(c2nc(-c3ccc(C)cc3)cs2)C(=O)C1N=Nc1ccccc1O (configuration not stated) ? inactive
